- Assay Info: Clearance in Han-Wister rat at 1 mg/kg, iv bolus or 2 mg/kg, po after 24 hrs by LC-MS/MS analysis
- Format: ADME, organism-based
- Condition Parameters: Han-Wistar, in vivo

| Compound | clearance [L/h/kg] |
| --- | --- |
| CN(C)CCNC(=O)[C@H]1c2ccccc2C[C@@H]1NC(=O)c1cc2ccccc2[nH]1 | 10.2 |

* * *

- Target Or Test System: Growth hormone secretagogue receptor type 1 (Homo sapiens, UniProt Q92847)
- Sequence (Q92847 whole entry): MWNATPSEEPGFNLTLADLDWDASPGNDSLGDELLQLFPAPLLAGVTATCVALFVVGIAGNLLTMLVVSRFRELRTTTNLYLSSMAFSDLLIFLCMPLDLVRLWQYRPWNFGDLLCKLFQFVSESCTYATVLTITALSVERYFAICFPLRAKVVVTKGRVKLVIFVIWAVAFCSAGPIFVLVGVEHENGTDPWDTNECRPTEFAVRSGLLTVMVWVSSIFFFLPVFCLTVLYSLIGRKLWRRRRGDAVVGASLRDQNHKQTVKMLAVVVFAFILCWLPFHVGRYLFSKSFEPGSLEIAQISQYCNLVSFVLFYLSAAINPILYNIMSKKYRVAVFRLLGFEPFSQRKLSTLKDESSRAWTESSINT
- Assay Info: Displacement of human [125I]-ghrelin from GHS-R1a (unknown origin) expressed in HEK293 cell membranes after 1 hr by radioligand binding assay
- Condition Parameters: read-out: IC50
Metric Name: log10(IC50) (log10 of the value in nM)

| Molecule | log10(IC50) |
| --- | --- |
| CN(C)CCNC(=O)[C@H]1c2ccccc2C[C@@H]1NC(=O)c1cc2ccccc2[nH]1 | 0.60 |
| Cc1ccc2[nH]c(C(=O)N[C@H]3Cc4ccccc4[C@@H]3NC(=O)[C@@H]3CN(C)CCO3)cc2c1 | 1.15 |
| CN1CCC[C@@H]1CC(=O)N[C@H]1c2ccccc2C[C@@H]1NC(=O)c1ccc2c(ccn2C)c1 | 2.26 |
| CN(C)CCC(=O)N[C@H]1c2ccccc2C[C@@H]1NC(=O)c1cc2cc(F)c(F)cc2[nH]1 | 1.99 |
| Cc1ccc2[nH]c(C(=O)N[C@H]3Cc4ccccc4[C@H]3NC(=O)CCN(C)C)cc2c1 | 1.84 |
| Nc1ccncc1C(=O)N[C@H]1c2ccccc2C[C@@H]1NC(=O)c1cc2ccccc2[nH]1 | 1.69 |
| CN1CC[C@@H](C(=O)N[C@H]2c3ccccc3C[C@@H]2NC(=O)c2ccc3c(ccn3C)c2)C1 | 2.46 |
| Cc1ccc2[nH]c(C(=O)N[C@H]3Cc4ccccc4[C@@H]3NC(=O)CCN(C)C)cc2c1 | 1.20 |
| CN1CCCCC(C(=O)N[C@H]2c3ccccc3C[C@@H]2NC(=O)c2ccc3c(ccn3C)c2)C1 (stereo in doubt; 28) | 2.28 |
| Cc1ccc2[nH]c(C(=O)N[C@H]3Cc4ccccc4[C@@H]3C(=O)N(C)CCN(C)C)cc2c1 | 1.15 |
| Cc1ccc2[nH]c(C(=O)N[C@@H]3Cc4ccccc4[C@@H]3NC(=O)CCN(C)C)cc2c1 | 3.10 |
| CN1N=C2CCN(C(=O)[C@@H](COCc3ccccc3)NC(=O)C(C)(C)N)C[C@@]2(Cc2ccccc2)C1=O [CAPROMORELIN] | 1.34 |
| CN1CC[C@H](C(=O)N[C@H]2c3ccccc3C[C@@H]2NC(=O)c2ccc3c(ccn3C)c2)C1 | 2.54 |
| CN1CCC[C@H]1CC(=O)N[C@H]1c2ccccc2C[C@@H]1NC(=O)c1ccc2c(ccn2C)c1 | 1.46 |
| O=C(N[C@H]1Cc2ccccc2[C@@H]1NC(=O)[C@H]1CCNC1)c1cc2cc(F)ccc2[nH]1 | 2.28 |
